Reference source for all entries: patent US20260000752A1

molecular target: SARS-CoV-2-RBD-hIgG-Fc fusion protein of SEQ ID NO: 19
property name: EC50 (µg/mL)
Write the value in µg/mL as a bare number.

Consider recombinant human Fc(gamma)RIIa, biotinylated (R&D Systems) (receptor) AAPPKAVLKLEPPWINVLQEDSVTLTCQGARSPESDSIQWFHNGNLIPTHTQPSYRFKANNNDSGEYTCQTGQTSLSDPVHLTVLSEWLVLQTPHLEFQEGETIMLRCHSWKDKPLVKVTFFQNGKSQKFSHLDPTFSIPQANHSHSGDYHCTGNIGYTLFSSKPVTITVQVPSMGSSSPMGI . Its measured EC50 is 2.28

In plain terms, recombinant human Fc(gamma)RI, biotinylated (R&D Systems) (receptor, UniProt P12314 16-288, looked up) QVDTTKAVITLQPPWVSVFQEETVTLHCEVLHLPGSSSTQWFLNGTATQTSTPSYRITSASVNDSGEYRCQRGLSGRSDPIQLEIHRGWLLLQVSSRVFTEGEPLALRCHAWKDKLVYNVLYYRNGKAFKFFHWNSNLTILKTNISHNGTYHCSGMGKHRYTSAGISVTVKELFPAPVLNASVTSPLLEGNLVTLSCETKLLLQRPGLQLYFSFYMGSKTLRGRNTSSEYQILTARREDSGLYWCEAATEDGNVLKRSPELELQVLGLQLPTP has a documented EC50 of 0.0339

Documented EC50 of human Fc(gamma)RIIIb (receptor) GMRTEDLPKAVVFLEPQWYSVLEKDSVTLKCQGAYSPEDNSTQWFHNENLISSQASSYFIDAATVNDSGEYRCQTNLSTLSDPVQLEVHIGWLLLQAPRWVFKEEDPIHLRCHSWKNTALHKVTYLQNGKDRKYFHHNSDFHIPKATLKDSGSYFCRGLVGSKNVSSETVNITITQGLAVSTIS : 11.7

Lab book: EC50 of recombinant human Fc(gamma)RIIb, biotinylated (R&D Systems) (receptor) APPKAVLKLEPQWINVLQEDSVTLTCRGTHSPESDSIQWFHNGNLIPTHTQPSYRFKANNNDSGEYTCQTGQTSLSDPVHLTVLSEWLVLQTPHLEFQEGETIVLRCHSWKDKPLVKVTFFQNGKSKKFSRSDPNFSIPQANHSHSGDYHCTGNIGYTLYSSKPVTITVQAP noted as 2.05
